# TESTED_ON: MST1 (Homo sapiens, UniProt Q13043)
# Sequence (Q13043 whole entry): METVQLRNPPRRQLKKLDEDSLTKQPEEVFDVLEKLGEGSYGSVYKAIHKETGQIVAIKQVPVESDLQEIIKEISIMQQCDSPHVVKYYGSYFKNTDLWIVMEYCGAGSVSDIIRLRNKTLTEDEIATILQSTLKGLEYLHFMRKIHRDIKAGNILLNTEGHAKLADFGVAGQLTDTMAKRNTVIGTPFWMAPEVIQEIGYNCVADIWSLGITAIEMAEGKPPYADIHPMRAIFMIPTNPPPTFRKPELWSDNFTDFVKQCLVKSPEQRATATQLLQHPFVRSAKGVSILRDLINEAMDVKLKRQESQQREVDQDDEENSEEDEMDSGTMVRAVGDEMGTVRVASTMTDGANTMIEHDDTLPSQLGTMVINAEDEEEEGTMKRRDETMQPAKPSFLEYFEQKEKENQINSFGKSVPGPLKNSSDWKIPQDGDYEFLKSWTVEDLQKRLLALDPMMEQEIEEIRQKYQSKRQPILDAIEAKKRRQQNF
# ASSAY_INFO: isothermal titration calorimetry
# EXPERIMENTAL_SETUP: 25 °C; 50 mM HEPES pH 7.5, 150 mM NaCl, 2 mM DTT
pKd: −log10 of the molar value.
REPORTED_ENDPOINT: pKd

                                   compound                            tested_on  value_reported
0  C=C(C)C(=O)OC1CC(C)=CC2(OC)C=C(C)C(O2)C2OC(=O)C(=C)C12 (stereo not shown)  MST1 (Homo sapiens, UniProt Q13043)            5.71

---

# TESTED_ON: MST1-GFP (Homo sapiens, UniProt Q13043)
# Construct: GFP-tagged MST1 expressed from plasmid in A549 cells, RIPA lysate
# Sequence (Q13043 whole entry): as above
# ASSAY_INFO: microscale thermophoresis
# EXPERIMENTAL_SETUP: A549 cell lysate; GFP fusion as fluorophore; constant, if any, only in figure
REPORTED_ENDPOINT: Kd (µM)

>>> print(df.to_string())
                                   compound  value_reported
0  C=C(C)C(=O)OC1CC(C)=CC2(OC)C=C(C)C(O2)C2OC(=O)C(=C)C12 (stereo not shown)            1.79
